EXPERIMENT: NCI Yeast Anticancer Drug Screen. Data for the cln2 rad14 strain (AID 165);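 also: 0% = growth equal to vehicle treated cultures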
ASSAY_SETUP: S. cerevisiae cln2 rad14 strain, at 50.0 µM, active compounds read high
Compounds without any hit were thinned out: in the full panel of roughly 79,000, 15% have a hit. Activity calls are given as the source filed them. Rule as the data show it: active = growth inhibition above about 70%; inactive = the rest.
REPORTED_METRIC: growth inhibition

Look over these answered cases.
Query: Any idea what its growth inhibition is? The molecule is COC(=O)c1cc(C(=O)OC)c(C/C(=N/NC(N)=S)C(=O)Nc2ccc(Cl)c(Cl)c2)nc1C/C(=N/NC(N)=S)C(=O)Nc1ccc(Cl)c(Cl)c1
Reply: 34.2% (inactive)

Query: Proceed to O=C1CCC(=O)N1CC1CC2CCC1C2 (centres undefined)
Reply: 23.8% (inactive)

Query: Proceed to CN(C)C(=N)N
Reply: -21.6% (inactive)

Query: Proceed to CCOC(=O)c1ccc(Nc2nc3ccccc3o2)cc1
Reply: -14.2% (inactive)

Query: Proceed to CCCCNCCS
Reply: 6.9% (inactive)

Query: Proceed to Cc1cc(Cl)nc2ccc([N+](=O)[O-])cc12
Reply: -18.1% (inactive)

Query: Proceed to CSC(=NC(=O)c1c(Cl)cccc1Cl)SC
Reply: 11.3% (inactive)

Query: Proceed to Nc1ccc(C2SCC(=O)N2NS(=O)(=O)c2cccc(C(=O)O)c2)cc1 (centres undefined)
Reply: 0.8% (inactive)

Continuing:
Query: Any idea what its growth inhibition is? The molecule is CN(C)CCNC(=O)c1ccc(C(=O)NCCN(C)C)c2c(C(=O)NCCN(C)C)ccc(C(=O)NCCN(C)C)c12
Reply: 54.7% (inactive)

Query: Proceed to Cc1ccc(NC(=O)/C=C/c2ccccc2)cc1Cl
Reply: -5.5% (inactive)

Query: Proceed to Nc1nnc(-c2ccc(Cl)cc2)o1
Reply: 1.1% (inactive)

----------
EXPERIMENT: NCI Yeast Anticancer Drug Screen. Data for the rad50 strain (AID 155);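 also: 0% = growth of vehicle-only cultures of the same strain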
ASSAY_SETUP: S. cerevisiae rad50 strain growth inhibition; at 50.0 µM; active compounds read high
The panel holds about 79,000 compounds, 15% with a hit somewhere; the sample as a whole holds those more often.
REPORTED_METRIC: growth inhibition (%)
Report the figure in % without appending any unit label.

Look over these answered cases.
Query: Any idea what its growth inhibition is? The compound is COC(=O)C(/C(=N\NC(N)=S)C(=O)Nc1ccccc1[N+](=O)[O-])c1cnc2ccccc2n1 (centres undefined)
Reply: 5

Query: Proceed to O=c1c2ccccc2[nH]c2c(O)c3c(=O)c4ccccc4[nH]c3cc12
Reply: -8.6

Query: Proceed to CCCC(CCC)(CCC)CCN(C)C
Reply: -6.85

Query: Proceed to COc1ccc(CCN=Cc2ccc(Cl)cc2)cc1OC
Reply: -3.55

Query: Proceed to COC(=O)c1cc(C(=O)OC)cc([N+](=O)[O-])c1
Reply: -6.4

Continuing:
Query: Any idea what its growth inhibition is? The compound is CCCOC(=O)C(O)c1ccc(C)cc1 (centres undefined)
Reply: -1.5

Query: Proceed to CCN(CC)C(=S)SCCO
Reply: -4.3

Query: Proceed to COc1ccc(CCNC(=O)Cc2ccc(Cl)cc2)cc1OC
Reply: 3.65

Query: Proceed to COc1ccccc1NC(N)=S
Reply: -9.1

Query: Proceed to CC12CCC3[C@@H](CC3(C)C)C(O)(CCC1=O)C2 (some centres undefined)
Reply: -10.4

Query: Proceed to c1ccc2c(CCNC3=NCCO3)cccc2c1
Reply: -11.1

Query: Proceed to N=C(N)c1ccc(NC(=O)c2ccc(C(=O)Nc3ccc(C(=N)N)cc3)c(N)c2)cc1
Reply: 9.9

Query: Proceed to O=C1CC(NC(=O)C(F)(F)F)c2c1csc2Br (centres undefined)
Reply: -20.6

Query: Proceed to Cn1c(-c2ccccc2)cc(=O)cc1-c1ccccc1
Reply: -22.9

Query: Proceed to O=C(Nc1ccc2ncccc2c1)Nc1ccc2ncccc2c1
Reply: 12.9

Query: Proceed to CCCCCn1cnc2cc(N3CCOCC3)c([N+](=O)[O-])cc2c1=O
Reply: 4.9

Query: Proceed to CC(C)C(C)(O)CO (centres undefined)
Reply: -21.9

Query: Proceed to N#Cc1ccccc1OCCCCCCCCCCOc1ccccc1C#N
Reply: -2.8

Query: Proceed to O=S(=O)(O)c1ccc2cc(O)ccc2c1
Reply: 35.7

Query: Proceed to O=C1CN(c2ccccc2)CC(=O)N2Cc3ccccc3CN12
Reply: -4.05

Query: Proceed to COc1ccccc1/C=N/Nc1ccc([N+](=O)[O-])cc1[N+](=O)[O-]
Reply: 6.45

Query: Proceed to O=C(NC(=O)c1ccccc1[N+](=O)[O-])Nc1ccc(Oc2ncc(Cl)cn2)c(C(F)(F)F)c1
Reply: 17.1

Query: Proceed to CC(N)CCC(=O)O (centres undefined)
Reply: -16.1

Query: Proceed to Brc1cc2c(cc1CC1CCCCO1)OCO2 (centres undefined)
Reply: -6.5

Query: Proceed to COC(=O)C1=NOC(Cc2ccccc2)C1 (centres undefined)
Reply: 10.3

Query: Proceed to O=[N+]([O-])c1cccc2ccc(N/N=C/c3ccccc3O)nc12
Reply: 18.8

Query: Proceed to O=C(Nc1ccc(C2=NCCN2)c(O)c1)c1ccc(C(=O)Nc2ccc(C3=NCCN3)c(O)c2)cc1
Reply: 32.6
